Some molecules, each annotated with its measured pIC50.
# assayTarget: BRD4 Bromodomain 1 (BRD4 BD1) (Homo sapiens)
# Construct: 44-168 and BRD4 BD2
# measurementDescription: AlphaScreen binding assay, BRD4 BD1
# setupConditions: His-tagged BRD4 BD1 50 nM, biotinylated H4 (1-21) K5/8/12/16 tetra-acetylated peptide 50 nM, compounds listed under IC50 range headings
pIC50: −log10 of the molar value.

CC(=O)N1c2ccc(-c3cccc(C(=O)N4CCOCC4)c3)c(OCC(=O)N(C)C)c2CC[C@@H]1C [I-489] ... ≤ 5.00

Sample C[C@H]1CCc2c(ccc(-c3cnn(C4CCNCC4)c3)c2Oc2ccc(F)c(Cl)c2)N1C(=O)C1CC1 [I-169] — what was its pIC50? 6.00 to 7.00

Sample CC(=O)N1c2ccc(-c3cnn(C4CC4)c3)c(OCCC(F)(F)F)c2CC[C@@H]1C [I-41] — what was its pIC50? 5.00 to 6.00

Sample C[C@H]1CCc2c(ccc(-c3cnn(C4CCNCC4)c3)c2Oc2cccc(F)c2C#N)N1C(=O)C1CC1 [I-151] — what was its pIC50? 6.00 to 7.00

Sample COC(=O)N1c2ccc(-c3cnn(CCO)c3)c(Oc3ccc(C(F)(F)F)cn3)c2CC[C@@H]1C [I-556] — what was its pIC50? 5.00 to 6.00

Sample CC(=O)N1c2ccc(-c3cnn(C4CCNCC4)c3)c(Oc3ccc(C(N)=O)cn3)c2CC[C@@H]1C [I-523] — what was its pIC50? 5.00 to 6.00

Sample COC(=O)N1c2ccc(-c3cnn(C4CCNC4)c3)c(OC3CCC3)c2CC[C@@H]1C (some centres unmarked) [I-108] — what was its pIC50? 6.00 to 7.00

Sample COC(=O)c1ccc(Oc2c(-c3cnn(C4CCNCC4)c3)ccc3c2CC[C@H](C)N3C(=O)OC)nc1 [I-537] — what was its pIC50? 5.00 to 6.00

Sample COC(=O)N1c2ccc(-c3cnn(C4CCN(C)C4)c3)c(Oc3ccc(F)cc3)c2CC[C@@H]1C (some centres unmarked) [I-249] — what was its pIC50? 6.00 to 7.00

Sample COC(=O)N1c2ccc(-c3cnn(C4CNC4)c3)c(Oc3ccccc3C#N)c2CC[C@@H]1C [I-138] — what was its pIC50? 6.00 to 7.00

Sample CC(=O)N1c2ccc(-c3cnn(C4CC4)c3)c(OCc3ccno3)c2CC[C@@H]1C [I-381] — what was its pIC50? 5.00 to 6.00

Sample C[C@H]1CCc2c(ccc(-c3cnn(C4CCNCC4)c3)c2Oc2ccc(C(F)(F)F)cn2)N1C(=O)C1CC1 [I-541] — what was its pIC50? 5.00 to 6.00

Sample COC(=O)N1c2ccc(-c3cnn(C4CNC4)c3)c(Oc3ccccc3F)c2CC[C@@H]1C [I-261] — what was its pIC50? 6.00 to 7.00

Sample CCCOc1c(C2CCN(C(C)=O)CC2)ccc2c1CC[C@H](C)N2C(C)=O [I-354] — what was its pIC50? ≤ 5.00

Sample COC(=O)N1c2ccc(-c3cnn(C4CC4)c3)c(Oc3ncccc3C(N)=O)c2CC[C@@H]1C [I-587] — what was its pIC50? 5.00 to 6.00

Sample COC(=O)N1c2ccc(-c3cnn(CCS(C)(=O)=O)c3)c(OCC3CCOCC3)c2CC[C@@H]1C [I-448] — what was its pIC50? 5.00 to 6.00

Sample CC(=O)N1c2ccc(-c3cnn(C4CC4)c3)c(O[C@H](F)C(N)=O)c2CC[C@@H]1C (single isomer, unassigned) [I-63] — what was its pIC50? 5.00 to 6.00

Sample CC(=O)N1c2ccc(-c3cnn(C4CC4)c3)c(Oc3ccc(C)cn3)c2CC[C@@H]1C [I-287] — what was its pIC50? 6.00 to 7.00

Sample COC(=O)N1c2ccc(-c3cnn(C4CCNCC4)c3)c(Oc3cccc(Cl)c3C#N)c2CC[C@@H]1C [I-149] — what was its pIC50? 6.00 to 7.00

Sample COC(=O)N1c2ccc(-c3cnn(CCS(C)(=O)=O)c3)c(Oc3ncc(C(F)(F)F)cc3F)c2CC[C@@H]1C [I-588] — what was its pIC50? 5.00 to 6.00

Sample CC#Cc1ccc2c(c1Oc1ccccc1)CC[C@H](C)N2C(=O)C1CC1 [I-347] — what was its pIC50? ≤ 5.00

Sample COC(=O)N1c2ccc(-c3cnn(C4CCNCC4)c3)c(Oc3ccc(Cl)cc3)c2CC[C@@H]1C [I-159] — what was its pIC50? 6.00 to 7.00

Sample COC(=O)N1c2ccc(-c3cnn(CCS(C)(=O)=O)c3)c(OC[C@H]3CCC(=O)N3)c2CC[C@@H]1C [I-467] — what was its pIC50? 5.00 to 6.00

----------
Some molecules, each annotated with its measured IC50.
# assayTarget: BRD4 Bromodomain 1 (BRD4 BD1) (Homo sapiens)
# Construct: 44-168 and BRD4 BD2
# measurementDescription: AlphaScreen binding assay, BRD4 BD1
# setupConditions: His-tagged BRD4 BD1 50 nM, biotinylated H4 (1-21) K5/8/12/16 tetra-acetylated peptide 50 nM, compounds listed under IC50 range headings

CCCOc1c(-c2nc3ccccc3[nH]2)ccc2c1CC[C@H](C)N2C(C)=O ... 1 to 10 µM
COC(=O)N1c2ccc(-c3cnn(C4CCNCC4)c3)c(Oc3ccc(C(F)(F)F)cn3)c2CC[C@@H]1C ... 1 to 10 µM
COC(=O)N1c2ccc(-c3cnn(CCO)c3)c(Oc3ncccc3C(F)(F)F)c2CC[C@@H]1C ... 1 to 10 µM
CC(=O)N1c2ccc(-c3ccc(S(C)(=O)=O)cc3)c(Oc3ncc(F)cn3)c2CC[C@@H]1C ... 1 to 10 µM
C#Cc1ccc2c(c1Oc1ccccc1)CC[C@H](C)N2C(=O)C1CC1 ... ≥ 10 µM

Sample COC(=O)N1c2ccc(-c3cnn(C4CCNCC4)c3)c(Oc3cccc(F)c3)c2CC[C@@H]1C — what was its IC50? 0.1 to 1 µM

Sample CC(=O)N1c2ccc(-c3cnn(C4CC4)c3)c(OCC(C)(C)CO)c2CC[C@@H]1C — what was its IC50? 0.1 to 1 µM

Sample COC(=O)N1c2ccc(-c3cnn(C4CC4)c3)c(OCS(=O)(=O)N(C)C)c2CC[C@@H]1C — what was its IC50? 1 to 10 µM

Sample CC(=O)N1c2ccc(-c3cnn(C4CCNCC4)c3)c(Oc3ncc(C(F)(F)F)cc3F)c2CC[C@@H]1C — what was its IC50? 0.1 to 1 µM

Sample CC(=O)N1c2c(F)cc(-c3cn[nH]c3)c(OC3CCC3)c2CC[C@@H]1C — what was its IC50? 1 to 10 µM

----------
# assayTarget: BRD4 Bromodomain 1 (BRD4 BD1) (Homo sapiens, UniProt O60885)
# Construct: 44-168 and BRD4 BD2
# measurementDescription: AlphaScreen binding assay, BRD4 BD1
# setupConditions: His-tagged BRD4 BD1 50 nM, biotinylated H4 (1-21) K5/8/12/16 tetra-acetylated peptide 50 nM, compounds listed under IC50 range headings
outcomeMeasure: IC50

Illustrative cases are given below, each with its answer.
C[C@H]1CCc2c(ccc(-c3cnoc3)c2OC2CCC2)N1C(=O)C1CC1 ... 1000 to 10000 nM
CC(=O)N1c2ccc(-c3cnn(CCS(C)(=O)=O)c3)c(OC3CCC3)c2CC[C@@H]1C ... 100 to 1000 nM
COC(=O)N1c2ccc(-c3cnn(C4CS(=O)(=O)C4)c3)c(OC3CCC3)c2CC[C@@H]1C ... 100 to 1000 nM
COc1ccccc1Oc1c(-c2cnn(C3CCNCC3)c2)ccc2c1CC[C@H](C)N2C(=O)C1CC1 ... 100 to 1000 nM

Below: the item to evaluate.
Sample CC(=O)N1c2ccc(-c3cnn(C4CCNCC4)c3)c(Oc3cnccn3)c2CC[C@@H]1C — what was its IC50? 100 to 1000 nM

----------
# assayTarget: BRD4 Bromodomain 1 (BRD4 BD1) (Homo sapiens, UniProt O60885)
# Construct: 44-168 and BRD4 BD2
# measurementDescription: AlphaScreen binding assay, BRD4 BD1
# setupConditions: His-tagged BRD4 BD1 50 nM, biotinylated H4 (1-21) K5/8/12/16 tetra-acetylated peptide 50 nM, compounds listed under IC50 range headings
outcomeMeasure: IC50

Requested read-out IC50, target or system BRD4 Bromodomain 1 (BRD4 BD1) (Homo sapiens, UniProt O60885), entry CC(=O)N1c2ccc(-c3cnn(C4CCN(C)CC4)c3)c(Oc3ccccc3C#N)c2CC[C@@H]1C [I-246] 0.1 to 1 µM

Requested read-out IC50, target or system BRD4 Bromodomain 1 (BRD4 BD1) (Homo sapiens, UniProt O60885), entry COC(=O)N1c2ccc(-c3cnn(CCS(C)(=O)=O)c3)c(Oc3ncc(C)cn3)c2CC[C@@H]1C [I-582] 1 to 10 µM

Requested read-out IC50, target or system BRD4 Bromodomain 1 (BRD4 BD1) (Homo sapiens, UniProt O60885), entry COC(=O)N1c2ccc(-c3cnn(CCS(C)(=O)=O)c3)c(Oc3ncc(C4CC4)cn3)c2CC[C@@H]1C [I-570] 1 to 10 µM

Requested read-out IC50, target or system BRD4 Bromodomain 1 (BRD4 BD1) (Homo sapiens, UniProt O60885), entry COc1ccc(Oc2c(-c3cnn(C4CCNCC4)c3)ccc3c2CC[C@H](C)N3C(=O)C2CC2)cc1 [I-196] 0.1 to 1 µM

Requested read-out IC50, target or system BRD4 Bromodomain 1 (BRD4 BD1) (Homo sapiens, UniProt O60885), entry COC(=O)N1c2ccc(-c3cnn(C4CC4)c3)c(OCC(=O)N3CCOCC3)c2CC[C@@H]1C [I-26] 1 to 10 µM

Requested read-out IC50, target or system BRD4 Bromodomain 1 (BRD4 BD1) (Homo sapiens, UniProt O60885), entry CC(=O)N1c2ccc(-c3cnn(C4CC4)c3)c(Oc3ccccc3F)c2CC[C@@H]1C [I-210] 0.1 to 1 µM

Requested read-out IC50, target or system BRD4 Bromodomain 1 (BRD4 BD1) (Homo sapiens, UniProt O60885), entry COC(=O)N1c2ccc(-c3csc(N4CCNCC4)n3)c(OC3CCC3)c2CC[C@@H]1C [I-316] 0.1 to 1 µM
